experiment: Protein binding in plasma; assay type: ADME, cell-free; conditions: read-out: PPB
Quantity measured: fraction unbound

Here are 4 molecules together with their reported answers.
1) Fc1cccc(Cl)c1CSc1nnc(-c2ccco2)n1-c1ccc(OCc2ccccc2)cc1 = ≤ 0.05
2) O=C(CSc1nnc(-c2ccccc2)c(-c2ccccc2)n1)N1CCc2ccccc21 = ≤ 0.05
3) O=S(=O)(c1ccc2ccccc2c1)N1CC=C(c2ccccc2)CC1 = ≤ 0.05
4) CN(Cc1ccccc1)S(=O)(=O)c1ccc(Oc2cccc(Cl)c2C#N)cc1 = ≤ 0.05

Kindly consider the entry below.
Query string: Given the entry "O=S(=O)(Nc1cccc(CCc2ccccn2)c1)c1cc(Cl)ccc1Cl" , report its measured fraction unbound.
Result string: ≤ 0.1
